Values were extracted from PubChem BioAssay (NCATS).

experiment: qHTS drug screen for cell cycle checkpoint inhibitors in PARPi-resistant BRCA-mutant ovarian cancer cell lines. (AID 1963452); conditions: PEO1/OlaR viability, CellTiter-Glo luminescence, 96 h; measured here: PEO4 Z-AUC; stronger effect = lower value
Rule for this label: YES means Z-AUC is less than 0.9; NO means Z-AUC is at least 0.9.

Inquiry: In the record for CSCC[C@@H](NC(=O)[C@@H](Cc1ccccc1)NC(=O)CNC(=O)CNC(=O)[C@@H](N)Cc1ccc(O)cc1)C(=O)O , is Z-AUC less than 0.9?
Reply text: NO

Inquiry: In the record for N=c1c2c(-c3ccccc3)c(-c3ccccc3)n(Cc3ccccc3)c2ncn1C1CCC(O)CC1 (stereo not given) , is Z-AUC less than 0.9?
Reply text: YES

Inquiry: In the record for CC1(N2CCC(n3c([C@@H]4CCCNC4)nc4ccccc43)CC2)CCCCCCC1 , is Z-AUC less than 0.9?
Reply text: YES

Inquiry: In the record for CCc1c(C(=O)C(N)=O)c2c(OCC(=O)O)cccc2n1Cc1ccccc1 , is Z-AUC less than 0.9?
Reply text: YES

Inquiry: In the record for COc1ccc(N(C(=O)Oc2c(C)cccc2C)c2ccnc(Nc3ccc(N4CCN(C)CC4)cc3)n2)c(OC)c1 , is Z-AUC less than 0.9?
Reply text: YES

Inquiry: In the record for CC[C@@]1(O)C(=O)OCc2c1cc1n(c2=O)Cc2cc3ccccc3nc2-1 , is Z-AUC less than 0.9?
Reply text: YES

Inquiry: In the record for O=C1C=CC[C@@H]2[C@H]3CCCN4CCC[C@@H](CN12)[C@@H]34 , is Z-AUC less than 0.9?
Reply text: NO

Inquiry: In the record for CCCC[N+]1(C)[C@H]2CC(OC(=O)[C@H](CO)c3ccccc3)C[C@H]1[C@H]1O[C@H]12 (stereo not given in full) , is Z-AUC less than 0.9?
Reply text: NO

Inquiry: In the record for COCC1(CO)C(=O)C2CCN1CC2 (stereo not given) , is Z-AUC less than 0.9?
Reply text: YES

Inquiry: In the record for CC(C)(O)C(=O)Nc1ccc([N+](=O)[O-])c(C(F)(F)F)c1 , is Z-AUC less than 0.9?
Reply text: YES

Inquiry: In the record for NC1=NC(=O)N2CC12 (stereo not given) , is Z-AUC less than 0.9?
Reply text: YES

Inquiry: In the record for COc1ccc(C(=O)c2c(C)n(CCN3CCOCC3)c3cc(I)ccc23)cc1 , is Z-AUC less than 0.9?
Reply text: YES

Inquiry: In the record for CCNC(=O)C[C@@H]1N=C(c2ccc(Cl)cc2)c2cc(OC)ccc2-n2c(C)nnc21 , is Z-AUC less than 0.9?
Reply text: YES

Inquiry: In the record for O=c1[nH]c2ccccc2n1C1CCN(Cc2ccc(-c3[nH]c4cc5ncnc5cc4nc3-c3ccccc3)cc2)CC1 , is Z-AUC less than 0.9?
Reply text: YES

Inquiry: In the record for O=S(=O)(CC1CS1)c1ccc(Oc2ccccc2)cc1 (stereo not given) , is Z-AUC less than 0.9?
Reply text: NO

Inquiry: In the record for Cc1ccccc1-n1c(Cn2ncc3c(N)ncnc32)nc2cccc(C)c2c1=O , is Z-AUC less than 0.9?
Reply text: YES

Inquiry: In the record for Clc1ccccc1C(c1ccccc1)(c1ccccc1)n1cccn1 , is Z-AUC less than 0.9?
Reply text: NO

Inquiry: In the record for COc1ccc2c(c[n+](C)c3c4cc5c(cc4ccc23)OCO5)c1OC , is Z-AUC less than 0.9?
Reply text: YES

Inquiry: In the record for O=C(Oc1ccc([N+](=O)[O-])cc1)N1CCN(Cc2cccc(Oc3ccccc3)c2)CC1 , is Z-AUC less than 0.9?
Reply text: NO
